tested on: S. aureus FDA-209-p
readout: log10 of MIC (log10 of the value in µg/mL)

C[N+]1(CC2=C(C(=O)[O-])N3C(=O)[C@@H](NC(=O)/C(=N\OC4CCCC4)c4csc(N)n4)[C@H]3CO2)CCCC1 :: -0.70
Nc1nc(/C(=N/OC2CCCC2)C(=O)N[C@@H]2C(=O)N3C(C(=O)[O-])=C(C[n+]4ccc(-c5cnco5)cc4)OC[C@H]23)cs1 :: -1.00
CO/N=C(\C(=O)N[C@@H]1C(=O)N2C(C(=O)[O-])=C(C[n+]3ccccc3)OC[C@H]12)c1csc(N)n1 :: -0.41
CO/N=C(\C(=O)N[C@@H]1C(=O)N2C(C(=O)[O-])=C(C[N+]3(C)CCc4ccccc4C3)OC[C@H]12)c1csc(N)n1 (stereo partly shown) :: -0.11
CO/N=C(\C(=O)N[C@@H]1C(=O)N2C(C(=O)O)=C(CN3CCc4ccccc4C3)OC[C@H]12)c1csc(N)n1 :: -0.41
CO/N=C(\C(=O)N[C@@H]1C(=O)N2C(C(=O)[O-])=C(C[n+]3ccc(-c4cc[nH]n4)cc3)OC[C@H]12)c1csc(N)n1 :: -0.70
C=CCO/N=C(\C(=O)N[C@@H]1C(=O)N2C(C(=O)[O-])=C(C[n+]3ccc(-c4cnco4)cc3)OC[C@H]12)c1csc(N)n1 :: -1.00
CO/N=C(\C(=O)N[C@@H]1C(=O)N2C(C(=O)[O-])=C(C[n+]3ccc(SCC#N)cc3)OC[C@H]12)c1csc(N)n1 :: -0.11
CO/N=C(\C(=O)N[C@@H]1C(=O)N2C(C(=O)O)=C(CN3CCCC3)OC[C@H]12)c1csc(N)n1 :: 0.19
CC(C)O/N=C(\C(=O)N[C@@H]1C(=O)N2C(C(=O)[O-])=C(C[n+]3cccc4c3CCC4)OC[C@H]12)c1csc(N)n1 :: -1.00
CC(C)O/N=C(\C(=O)N[C@@H]1C(=O)N2C(C(=O)[O-])=C(C[n+]3ccc(-c4cnco4)cc3)OC[C@H]12)c1csc(N)n1 :: -0.70
CC(C)O/N=C(\C(=O)N[C@@H]1C(=O)N2C(C(=O)[O-])=C(C[N+]3(C)CCCC3)OC[C@H]12)c1csc(N)n1 :: -0.70
CO/N=C(\C(=O)N[C@@H]1C(=O)N2C(C(=O)[O-])=C(C[N+]3(C)CCCC3)OC[C@H]12)c1csc(N)n1 :: -0.41
